Taken from PubChem BioAssay (NCI).

test system: SNB-19 CNS; assay: NCI tumour cell line growth inhibition, 48 h
reportedEndpoint: TGI

molecule	result
COc1ccc2c3c(c(C(=O)O)oc13)C(CCC(=O)O)CC2 (stereo unspecified)	> 100 µM
CN(C)CCS(=O)(=O)Nc1cc(-c2ccc3ncnc(Nc4ccc(F)c(Cl)c4)c3c2)cnc1Cl	> 100 µM
Cc1ccc(-c2nc(C(Cl)Cl)nc3cc(C)nn23)cc1	> 100 µM
COc1ccc(C(=O)/C=C/c2ccc(OCc3ccccc3)c(OC)c2)cc1OC	> 100 µM
Nc1nc(-c2ccccc2)cc(-c2cc(Cl)ccc2O)n1	> 100 µM

[in] Form field: TGI recorded for Cn1c(=O)n2n(c1=O)C(S(=O)c1ccccc1)C2 (stereo unspecified) with SNB-19 CNS (enter value)
[out] > 100 µM

[in] Form field: TGI recorded for Cc1cc(OC(=O)c2c(C)cc(OC(=O)c3c(C)cc(O)cc3O)cc2O)cc(O)c1C(=O)O with SNB-19 CNS (enter value)
[out] > 100 µM

[in] Form field: TGI recorded for CCOc1cc(/C=C/C(=O)CC(=O)/C=C/c2ccc(OC(=O)CNCCN(CC)CC)c(OCC)c2)ccc1OC(=O)CNCCN(CC)CC with SNB-19 CNS (enter value)
[out] 14.2 µM

[in] Form field: TGI recorded for O=C(/C=C/c1cccs1)c1ccc([N+](=O)[O-])cc1 with SNB-19 CNS (enter value)
[out] > 100 µM

* * *

test system: LOX IMVI melanoma; experiment: NCI tumour cell line growth inhibition, 48 h
reportedEndpoint: log10 of TGI (log10 of the value in µM)
Units before log transform: µM; reported quantity: TGI; transform: log10.

As a guide, the following entries are already answered.
compound	log10 of TGI
CC1=CC(=O)c2c(O)c3c(c(O)c2C1=O)C1C(O)C(C3=O)C23C(=O)c4c(O)c(C)cc(O)c4C(O)=C2C(=O)CC(O)C13 (stereo not given)	0.67
CCN(CC)C(=S)SSCCO	1.67
CCOc1cc2c(cc1O)CC[C@@H]1[C@@H]2CC[C@]2(C)[C@@H](O)CC[C@@H]12	1.32
O=S(=O)(Cc1ccccc1)SCc1ccccc1	1.49
O=C(Nc1ccc(Cl)c(Cl)c1)C1C(=O)N(c2ccc(Cl)c(Cl)c2)C(=O)/C1=N\O (stereo not given)	1.94
O=C(Nc1cccc(-n2cc(-c3ccncc3)c(-c3ccc(O)c(Cl)c3)n2)c1)Nc1ccc(Cl)c(Cl)c1	0.70

Then there is this compound:
[in] Form field: log10 of TGI recorded for CCN(CC)Cc1cc(Nc2cc(C(F)(F)F)c(C#N)c3nc4ccccc4n23)ccc1O with LOX IMVI melanoma (enter value)
[out] 1.12

* * *

system: NCI-H460 lung; experiment: NCI tumour cell line growth inhibition, 48 h
Here, each record is paired with measured TGI data.
The figure you give is taken to be in µM; do not add the unit.

molSmiles	measureUnit	numericResult
Cn1c(=O)c(C(=O)NC23CC4CC(CC(C4)C2)C3)c(O)c2ccccc21	µM	51.1

[in] Item CC/C(=C(/c1ccc(/C=C/C(=O)O)cc1)c1ccc2[nH]ncc2c1)c1ccc(F)cc1Cl has what recorded TGI?
[out] 27.7

[in] Item CCOc1cc2c(cc1O)CC[C@@H]1[C@@H]2CC[C@]2(C)[C@@H](O)CC[C@@H]12 has what recorded TGI?
[out] 23

[in] Item Cn1cc(NC(=O)c2cc(NC(=O)CCCCCCCC(=O)Nc3cc(C(=O)Nc4cc(C(=O)NCCC(=N)N)n(C)c4)n(C)c3)cn2C)cc1C(=O)NCCC(=N)N has what recorded TGI?
[out] 22

[in] Item COC(=O)C1=Nc2ccc(F)cc2/C1=C/c1sc(=S)[nH]c1O has what recorded TGI?
[out] 10.1

* * *

tested on: NCI-H23 lung; experiment: NCI tumour cell line growth inhibition, 48 h
reportedEndpoint: log10(TGI) (log10 of the value in µM)
Units before log transform: µM; reported quantity: TGI; transform: log10.

compound	log10(TGI)
NC(N)=N/N=C/c1c(-c2ccc(Cl)cc2)nc2sc(Cl)cn12	0.39
COc1cc2c(cc1OC)C(SC)C(=O)N(Cc1cccc(OC)c1OC)CC2 (stereo not given)	1.26

[in] Item C/C(=N\Nc1nc2ccccc2n1C)c1ccc2ccccc2n1 has what recorded log10(TGI)?
[out] 1.49

[in] Item O=C1C2C(C(=O)N1CC[Se][Se]CCN1C(=O)C3C(C1=O)[C@H]1C=C[C@@H]3C1)[C@H]1C=C[C@@H]2C1 (stereo not given in full) has what recorded log10(TGI)?
[out] 0.65

[in] Item CCOC(=O)C1=C(C)N(Cc2ccc(Cl)cc2Cl)[C@]2(C#N)C(O)=C(Cl)C(Cl)=C(O)[C@]12C#N has what recorded log10(TGI)?
[out] 1.91

[in] Item Cc1cc2c(cc1C)[n+](=O)c(C(=O)/C=C/c1ccccc1[N+](=O)[O-])c(C)n2[O-] has what recorded log10(TGI)?
[out] 1.80

* * *

tested on: RXF 393 renal; assay: NCI tumour cell line growth inhibition, 48 h
reportedEndpoint: TGI (µM)
The figure you give is taken to be in µM; do not add the unit.

compound	studyTarget	measureUnit	TGI
CCCCOc1ccc(S(=O)(=O)/N=C(\N)Nc2ccc(Cl)cc2)cc1	RXF 393 renal	µM	32.3
C=CC[PH+](c1ccccc1)c1ccccc1.C=CC[PH+](c1ccccc1)c1ccccc1.[Pt+2].[S-]c1ncccn1.[S-]c1ncccn1	RXF 393 renal	µM	18.3
C=CC(C)(O)CCC1C(=C)C(O)CC2C(C)(C)CCCC12C (stereo not given)	RXF 393 renal	µM	29.5
CCN(CCNc1ccc(C)c2sc3cc(Cl)ccc3c(=O)c12)CC(C)(C)O	RXF 393 renal	µM	5.4

[in] Item C=C(C)[C@@H]1CC[C@]2(C(=O)n3ccnc3)CC[C@]3(C)[C@H](CC[C@@H]4[C@@]5(C)CCCNC(C)(C)[C@@H]5CC[C@]43C)[C@@H]12 has what recorded TGI?
[out] 2.92

* * *

Here, each record is paired with measured TGI data.
system: SF-268 CNS; test: NCI tumour cell line growth inhibition, 48 h

As a guide, the following entries are already answered.
compound	result
Cc1cc(C)c(S(=O)(=O)N(CCCN)OCCCN)c(C)c1	> 100 µM
Cc1cc(OC(=O)c2c(C)cc(OC(=O)c3c(C)cc(O)cc3O)cc2O)cc(O)c1C(=O)O	> 100 µM
O=C1C2C(C(=O)N1CC[Se][Se]CCN1C(=O)C3C(C1=O)[C@H]1C=C[C@@H]3C1)[C@H]1C=C[C@@H]2C1 (some centres not stated)	0.76 µM

[in] Item c1ccc2c(c1)[O][Sn][O]2 has what recorded TGI?
[out] > 150 µg/mL

[in] Item N#Cc1c(N)nc2n[nH]c(N)c2c1-c1ccccc1 has what recorded TGI?
[out] 29.2 µM

[in] Item O=C(/C=C/c1ccc(Cl)cc1)c1ccc(Cl)s1 has what recorded TGI?
[out] > 100 µM

[in] Item CCOC(=O)[C@H]1Nc2c(cccc2[N+](=O)[O-])C2c3ccccc3CC21 (some centres not stated) has what recorded TGI?
[out] > 100 µM

[in] Item CCCCC1Cc2cc(OC)ccc2-c2n1c1cc(OC)ccc1[n+]2C (configuration not stated) (tested in a mixture with another compound) has what recorded TGI?
[out] 6.09 µM

[in] Item CCOC(=O)c1cc2cc(OCc3ccccc3)ccc2[nH]1 has what recorded TGI?
[out] > 100 µM

[in] Item COc1cccc(/C=N/[N-]C(N)=O)c1[O-].[OH3+].[Pd+2] has what recorded TGI?
[out] > 100 µM

[in] Item CC(=O)Nc1sccc1S(=O)(=O)c1ccc(Cl)cc1 has what recorded TGI?
[out] > 100 µM

[in] Item Clc1ccc(-c2nnc(-c3nsc4ccccc34)o2)cc1 has what recorded TGI?
[out] 66.6 µM

* * *

Here, each record is paired with measured TGI data.
tested on: CAKI-1 renal; test: NCI tumour cell line growth inhibition, 48 h

compound	studyTarget	TGI
CCCCCC(/C=C/[C@@H]1[C@@H](C(O)CCCCCC(=O)OC)C(=O)C[C@H]1O[Si](C)(C)C(C)(C)C)OCOCCOC (some centres undefined)	CAKI-1 renal	32.2 µM
Cc1nn2c(-c3nc4cc(Cl)c(Cl)cc4[nH]3)c(-c3ccc(F)cc3)nc2s1	CAKI-1 renal	> 59.4 µM
CC(=O)Nc1cc(/C=C\C(=O)N2CC(CCl)c3c2cc(N)c2ccccc32)n(C)n1 (centres undefined)	CAKI-1 renal	0.0223 µM
Nc1n[nH]c2ccc([C@@H]3Nc4c(F)cc5[nH]ncc5c4[C@H]4C5CCC(C5)[C@@H]34)cc12 (some centres undefined)	CAKI-1 renal	> 47.5 µM
CCN1C(=O)N2C(OC)c3ccccc3C(Br)C2(OC)C1=O (centres undefined)	CAKI-1 renal	> 100 µM
O=C1C2C(C(=O)N1CC[Se][Se]CCN1C(=O)C3C(C1=O)[C@H]1C=C[C@@H]3C1)[C@H]1C=C[C@@H]2C1 (some centres undefined)	CAKI-1 renal	0.828 µM
COC(=O)c1cc2ccccc2c2nc3ccccc3c(Cl)c12	CAKI-1 renal	> 100 µM
Cc1ccc2oc3c(ccc(=O)n3C)c(=O)c2c1	CAKI-1 renal	> 100 µM

Then there is this compound:
[in] Item Nc1ncnc2c1N=C(c1ccccc1)CC(c1ccccc1)N2 (centres undefined) has what recorded TGI?
[out] > 100 µM
